Attribution: the supplement of paper PMC9112550

Recorded shrunken log2 fold change values for a group of sequences are listed next.
Tested on: Escherichia coli TOP10;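 also: peptides expressed intracellularly from a pBAD plasmid library in pooled LB shake-flask culture, induced with 0.3% L-arabinose, DNA abundance read by NGS, three biological replicates, DESeq2 with apeglm shrinkage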
Assay: shrunken log2 fold change of peptide-encoding DNA abundance (4.5 h post-induction vs induction); higher = less antimicrobial activity (less host growth inhibition)
Settings: time post-induction: 4.5 h; library: site-saturation at positions 5, 18, 19, 20

record sequence	shrunken log2 fold change
RRIRMRPPRLPRPRPRPPFHPRP	0.0707
RRIRTRPPRLPRPRPRPRVVPRP	1.87
RRIRYRPPRLPRPRPRPQVFPRP	0.0195
RRIRSRPPRLPRPRPRPIQPPRP	0.117
RRIRYRPPRLPRPRPRPLEKPRP	0.0601
RRIRDRPPRLPRPRPRPDCKPRP	0.0499
RRIRFRPPRLPRPRPRPSWNPRP	-0.575
RRIRYRPPRLPRPRPRPKQPPRP	0.102
